// data source = patent US20080026996A1

// VPAC1/VPAC2 ratio of EC50 lookup, one value per entry
- target-or-test-system: rat VPAC2 receptor (Rattus norvegicus, UniProt P35000)
- Sequence (P35000 23-437): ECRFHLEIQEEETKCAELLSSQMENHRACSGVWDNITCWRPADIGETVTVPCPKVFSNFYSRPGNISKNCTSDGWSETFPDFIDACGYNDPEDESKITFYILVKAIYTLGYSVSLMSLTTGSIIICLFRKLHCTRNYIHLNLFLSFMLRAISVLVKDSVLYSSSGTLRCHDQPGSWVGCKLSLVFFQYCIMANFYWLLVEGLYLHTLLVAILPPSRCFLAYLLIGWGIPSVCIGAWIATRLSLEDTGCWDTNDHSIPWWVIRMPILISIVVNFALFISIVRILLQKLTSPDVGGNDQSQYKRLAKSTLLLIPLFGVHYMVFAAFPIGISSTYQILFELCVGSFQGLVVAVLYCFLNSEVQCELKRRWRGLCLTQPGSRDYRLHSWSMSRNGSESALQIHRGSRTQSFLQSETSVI
- measurement-description: Adenylate cyclase activation on membrane preparations expressing rat VPAC2 receptor
- Type: biochemical
- Set-up: expressed in transfected cells; host or cells: CHO cells, crude membranes
- run-conditions: rat receptors, adenylate cyclase activation
Where no end group is shown, it is not given here. [ ]: non-standard residue; d: D form. The star is where a group is joined. Hexanoyl = CCCCCC(=O)*; Aib = CC(C)(N)C(=O)O
reported-endpoint: VPAC1/VPAC2 ratio of EC50

INSERT INTO results (substance, reported_endpoint, recorded_result) VALUES
  ('H-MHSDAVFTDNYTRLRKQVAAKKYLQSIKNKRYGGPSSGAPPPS [Agonist P104]', 'VPAC1/VPAC2 ratio of EC50', 184),
  ('Hexanoyl-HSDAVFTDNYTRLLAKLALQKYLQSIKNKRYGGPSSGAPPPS [Agonist P119]', 'VPAC1/VPAC2 ratio of EC50', 32),
  ('Hexanoyl-HSDAVFTDNYTRLR[Aib]QVAA[Aib]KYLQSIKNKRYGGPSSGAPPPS [Agonist P261]', 'VPAC1/VPAC2 ratio of EC50', 200),
  ('Hexanoyl-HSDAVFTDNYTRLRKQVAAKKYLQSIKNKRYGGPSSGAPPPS [Agonist P31]', 'VPAC1/VPAC2 ratio of EC50', 174);

====

- measurement-description: Rat serum stability studies (remaining active peptide by DiscoveRx cAMP on CHO-VPAC2 cells)
- Assay type: in vitro ADME
Where no end group is shown, it is not given here. [ ]: non-standard residue; d: D form. The star is where a group is joined. hArg = N=C(N)NCCCC[C@H](N)C(=O)O; Orn = NCCC[C@H](N)C(=O)O; Hexanoyl = CCCCCC(=O)*; Aib = CC(C)(N)C(=O)O; Mpa = O=C(O)CCS
Threshold check on Rat Serum Stability (estimated purity in % after 18 hours): strictly below 1% is MET; on or above 1% is NOT MET.

INSERT INTO assay_data (substance, group_label) VALUES
  ('Hexanoyl-HSDAVFTDNYTRL[hArg][Orn]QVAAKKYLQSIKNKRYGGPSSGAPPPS [Agonist P308]', 'MET'),
  ('Hexanoyl-HSDAVFTDNYTRLQKQVAAQKYLQSIKNKRYGGPSSGAPPPS [Agonist P252]', 'NOT MET'),
  ('Hexanoyl-HSDAVFTDNYTR[Aib]R[Aib]QVAA[Aib]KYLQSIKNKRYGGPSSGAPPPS [Agonist P346]', 'NOT MET'),
  ('Hexanoyl-HSDAVFTDNYTRLRKQVAAKKYWQSIKNKRYGGPSSGAPPPS [Agonist P230]', 'MET'),
  ('Hexanoyl-HSDAVFTANYTRLRKQVAAKKYLQSIKNKRYGGPSSGAPPPS [Agonist P158]', 'MET'),
  ('Hexanoyl-HSDAVFTDNYTRLQ[Aib]QVAA[Aib]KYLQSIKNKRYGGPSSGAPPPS [Agonist P302]', 'NOT MET'),
  ('Hexanoyl-HSDAVFTDQYTRLR[Aib]QVAA[Aib]KYLQSIKQKRYGGPSSGAPPPS [Agonist P315]', 'NOT MET'),
  ('Hexanoyl-HSDAVFTDNYTRL[Aib]KQLAAK[Aib]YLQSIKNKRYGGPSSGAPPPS [Agonist P241]', 'NOT MET'),
  ('Hexanoyl-HSDAVFTDNYTRLRKQVAAKKYLQSFKNKRYGGPSSGAPPPS [Agonist P106]', 'MET'),
  ('Hexanoyl-HSDAVFTDNYTRLK[Aib]QVAA[Aib]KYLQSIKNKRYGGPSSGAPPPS [Agonist P318]', 'NOT MET'),
  ('Hexanoyl-HSDAVFTDNYTRLRKQVAAAKYLQSIKNKRYGGPSSGAPPPS [Agonist P181]', 'MET'),
  ('Hexanoyl-HSDA[Aib]FTDNYTRLRKQVAAKKYLQSIKNKRYGGPSSGAPPPS [Agonist P212]', 'MET'),
  ('Hexanoyl-HSDAVFTDNYTRLRKQVAAYKYLQSIKNKRYGGPSSGAPPPS [Agonist P147]', 'MET'),
  ('Hexanoyl-HSDAVFTDNYTRLRAQLAAQKYLQSIKNKRYGGPSSGAPPPS [Agonist P142]', 'MET'),
  ('Hexanoyl-HSDAVFTDNYTRLRKQVAAKKYVQSIKNKRYGGPSSGAPPPS [Agonist P234]', 'MET'),
  ('[Mpa]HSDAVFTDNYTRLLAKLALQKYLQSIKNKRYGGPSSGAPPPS [Agonist P205]', 'NOT MET'),
  ('Hexanoyl-HSDAVFTDNYTRLRK(Ac)QVAAKK(Ac)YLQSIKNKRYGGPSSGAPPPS [Agonist P194]', 'NOT MET'),
  ('Hexanoyl-HSDA[dV]FTDNYTRLRKQVAAKKYLQSIKNKRYGGPSSGAPPPS [Agonist P210]', 'MET'),
  ('Hexanoyl-HSDAVFTDNYTRLRLQVAAKKYLQSIKNKRYGGPSSGAPPPS [Agonist P179]', 'NOT MET'),
  ('Hexanoyl-HSDAVFTDNYTRLR[Aib]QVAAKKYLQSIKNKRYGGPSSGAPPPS [Agonist P168]', 'NOT MET'),
  ('Hexanoyl-HSDAVFTDNYTRLRRQVAAKKYLQSIKNKRYGGPSSGAPPPS [Agonist P176]', 'MET');
